# Subject Of Test: T1, human matriptase-2 ECD protein his tag (human, UniProt Q8IU80 78-811)
# T1 sequence: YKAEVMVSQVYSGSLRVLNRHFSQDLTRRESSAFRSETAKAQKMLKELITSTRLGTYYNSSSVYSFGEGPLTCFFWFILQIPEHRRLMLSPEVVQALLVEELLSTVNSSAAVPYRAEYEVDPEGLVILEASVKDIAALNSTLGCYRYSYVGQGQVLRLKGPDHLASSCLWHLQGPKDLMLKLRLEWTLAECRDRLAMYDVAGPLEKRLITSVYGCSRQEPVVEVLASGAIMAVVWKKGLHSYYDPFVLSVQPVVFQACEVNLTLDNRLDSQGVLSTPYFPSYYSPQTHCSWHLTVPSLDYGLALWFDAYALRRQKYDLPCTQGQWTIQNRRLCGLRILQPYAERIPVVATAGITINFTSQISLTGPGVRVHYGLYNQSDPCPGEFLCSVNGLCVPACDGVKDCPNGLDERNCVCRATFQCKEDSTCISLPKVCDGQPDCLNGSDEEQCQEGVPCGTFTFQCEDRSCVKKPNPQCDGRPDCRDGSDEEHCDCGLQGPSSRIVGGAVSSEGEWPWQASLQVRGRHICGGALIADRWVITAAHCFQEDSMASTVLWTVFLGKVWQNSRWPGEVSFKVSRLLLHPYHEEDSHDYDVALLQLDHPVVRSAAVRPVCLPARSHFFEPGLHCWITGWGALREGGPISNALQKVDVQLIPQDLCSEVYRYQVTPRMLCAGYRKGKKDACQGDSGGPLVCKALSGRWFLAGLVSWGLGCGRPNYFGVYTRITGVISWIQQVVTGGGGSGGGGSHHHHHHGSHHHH
# Test: cell-based or functional assay
Readout Label: Inhibition enzymatic activity human MTP2 protein (IC50) (nM)
Lab book: enter the figure in nM, no units written.

Noted for NORI-002 (antibody, human IgG4 S228P, kappa, V domains shown) VH: EVQLVESGGGLVKPGRSLRLSCTGSGFTFGDFGMSWFRQAPGKGLEWVCFIRSKPYGGTTDYAPSVRGRFSISRDDSKGIVYLQMNSLRTEDTAVYYCSRNEILTGYYIFDYWGQGTLVTVSS VL: DIQMTQSPSSLSASLGDRVTITCQASHDITNYLIWYQQKPGKAPRLLIFDASILETGVPSRFSGSGSGTDFTFTISSLQPEDFATYYCQQYYNLPLTFGGGTKVDIKR : its Inhibition enzymatic activity human MTP2 protein (IC50) reads 8.53

binder NORI-012 (antibody, human IgG4 S228P, lambda, V domains shown, human IgG4PE, lambda) VH: EVQLVESGGGLVQPGRSLRLSCAASGFTFDDHVMYWVRQAPGKGLEWVSGISWNSDTIGYADAVKGRFTISRDNAKNVLYLHMNSLRPEDTALYYCAREKDGDFYYNYFVMDVWGQGTTVTVSP VL: QSALTQPPSASGSPGQSVTISCTGTSSDVGFYNFVSWYQQHPDKAPKVMIYEVSKRPSGVPDRFSGSKSGNTASLTVSGLQAEDEADYYCSSYAGSNKVVFGGGTKLTVLG , Inhibition enzymatic activity human MTP2 protein (IC50) observed: 21.2

Lab note: measured Inhibition enzymatic activity human MTP2 protein (IC50) of NORI-006 (antibody, human IgG4 S228P, kappa, V domains shown, human IgG4PE, kappa) VH: EVQLVESGGGLIKPGRSLRLSCTGSGFTFGDFGLSWFRQAPGKGLEWISFIRSKPYGGTTDYAASVKGRFTISRDDSKNVAYLQMNSLKTEDTAVYYCARNEILTGYYIFDYWGQGTLVTVSS VL: DIQMTQSPSSLSASLGDRVTITCQASQDINNYLNWYQVQPGKAPKLLIFDASILETGVPSRFSGSGSGTDFSFTISSLQPEDIATYYCQQYDNLPLTFGGGTKVDFKR was 8.8

Per the record, NORI-025 (antibody, human IgG4 S228P, lambda, V domains shown) VH: QVQLVESGGGVVQPGRSLRLSCTASGVTFTNFDMHWVRQTPGKGLEWVAVIWYDESYSYYADSVQGRFTISRDNSKNSLYLQMNSLRADDTAVYYCARGWTGSYVFDYWGQGTLVTVSS VL: QSVLTQPPSVSEAPRQRVTISCSGSSSNIGNNAVNWYQQLPGKAPKLLISYDDLLPSGVSDRFSGSKSGTSASLAISGLQSADEADYYCAAWDDSLNAVVFGGGTKLTVLG has Inhibition enzymatic activity human MTP2 protein (IC50) of 3.27

Entry under test: NORI-014 (antibody, human IgG4 S228P, lambda, V domains shown, human IgG4PE, lambda) VH: EVQLVESGGGLIQAGRSLRLSCAASGFTFDEHVMYWVRQIPGKGLEWISSITWKSDIIAYADSVKGRFTISRDNAKNALYLQMNSLRAEDTALYYCAREKDGDFYYYYFAMDVWGQGTTVTVSS VL: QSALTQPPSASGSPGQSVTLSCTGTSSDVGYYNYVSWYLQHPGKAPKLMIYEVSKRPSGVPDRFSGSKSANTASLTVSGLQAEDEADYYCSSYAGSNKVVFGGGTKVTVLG . Its Inhibition enzymatic activity human MTP2 protein (IC50) was 11.8

# binder NORI-021 (antibody, human IgG4 S228P, lambda, V domains shown) VH: QVQLVESGGGLVKPGGSLRLSCAAFGFTFSDYYMGWIRQAPGKGLEWVSHISSSGRTRYYADSVKGRFTISRDNAKNALYLQMDSLRAEDTAVFYCARAQLRYFDWLDYWGQGTLVTVSS VL: QSVLTQPPSVSAAPGQKVTISCSGSGSNIGNNYVSWYQQVPGTAPKLLIYDNNKRPSGIPDRFSGSKSGTSATLGITGLQTGDEADYYCGTWDSSLSAGVFGGGTKLTVLG ; its Inhibition enzymatic activity human MTP2 protein (IC50) = 2.71

The binder NORI-027 (antibody, human IgG4 S228P, lambda, V domains shown) VH: QVQLVQSGAELKKPGASVKVSCKASGYTFNNYGISWVRQAPGQGLEWMGWISAYSGYTNIAQKFQGRVTMTTDTSTNTVYMELGSLRSDDTAVYYCAREGYSNFEDWFDPWGQGTLVTVSS VL: SYELTQPPSVSVSPGQTARITCSGDELPKKYAYWYQQKSGQAPVLVIYEDSKRPSGIPERISGSNSGTMATLTISGAQVEDEADYYCYSTDSSGNHRVFGGGTKLTVLG showed Inhibition enzymatic activity human MTP2 protein (IC50) equal to 24.9

For record NORI-009 (antibody, human IgG4 S228P, lambda, V domains shown, human IgG4PE, lambda) VH: EVQLVESGGGLVQPGRSLRLSCAASGFTFNDHVIYWVRQVPGKGLEWVSTISWNSDTIAYADSVKGRFTISRDNAKNALYLQMNSLRTEDTALYYCAREKDGDFYYDYFAMDVWGQGTTVTVSS VL: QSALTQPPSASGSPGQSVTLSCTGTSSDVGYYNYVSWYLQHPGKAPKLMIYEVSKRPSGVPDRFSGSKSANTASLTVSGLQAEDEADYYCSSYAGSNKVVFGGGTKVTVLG the listed Inhibition enzymatic activity human MTP2 protein (IC50) is 55.5

Notebook: NORI-024 (antibody, human IgG4 S228P, lambda, V domains shown) VH: QVQLVQSGPELKKPGASVKVSCKASGYTFTNFGISWVRQAPGQGLEWMGWISAYSGFTNFAQKFQGRVSMTTDTSTSTVYMELKSLRSDDTAVYYCAREGYSNYEDWFDPWGQGTLVTVSS VL: SYELTQPPSVSVSPGQTARITCSGDALPKKYAYWYQQKSGQAPVLVIYEDSKRPSGIPERISGSNSGTMATLTISGAQVEDEADYYCYSTDSSGNHRVFGGGTKLTVLG , Inhibition enzymatic activity human MTP2 protein (IC50) read as 10.5

// field: Inhibition enzymatic activity human MTP2 protein (IC50); key: NORI-029 (antibody, human IgG4 S228P, lambda, V domains shown) VH: EVQLVESGGGLVKPGRSLRLSCTASGFTFGDYVMSWFRQAPGKGLEWVGFIRSKPYSETTEYAASVRGRFTISRDDSKSIAYLQMNSLKTEDTAVYYCTRALYDLLTGPWMGGDYFYALDVWGQGTTVTVSS VL: QSALTQPPSASGSPGQSVTISCTGTSSDVGDYNYVSWYQQHPGKAPKLMIYEVSKRPSGVPDRFSGSKSGNTASLTVSGLQAEDEADYYCKSYAGSNNLVFGGGTKLTVLG ; value = 2
